Data provenance is paper PMC5041479.

# targetDesc: T1, Pif1p (yeast, UniProt P07271 40-859)
# T1 sequence: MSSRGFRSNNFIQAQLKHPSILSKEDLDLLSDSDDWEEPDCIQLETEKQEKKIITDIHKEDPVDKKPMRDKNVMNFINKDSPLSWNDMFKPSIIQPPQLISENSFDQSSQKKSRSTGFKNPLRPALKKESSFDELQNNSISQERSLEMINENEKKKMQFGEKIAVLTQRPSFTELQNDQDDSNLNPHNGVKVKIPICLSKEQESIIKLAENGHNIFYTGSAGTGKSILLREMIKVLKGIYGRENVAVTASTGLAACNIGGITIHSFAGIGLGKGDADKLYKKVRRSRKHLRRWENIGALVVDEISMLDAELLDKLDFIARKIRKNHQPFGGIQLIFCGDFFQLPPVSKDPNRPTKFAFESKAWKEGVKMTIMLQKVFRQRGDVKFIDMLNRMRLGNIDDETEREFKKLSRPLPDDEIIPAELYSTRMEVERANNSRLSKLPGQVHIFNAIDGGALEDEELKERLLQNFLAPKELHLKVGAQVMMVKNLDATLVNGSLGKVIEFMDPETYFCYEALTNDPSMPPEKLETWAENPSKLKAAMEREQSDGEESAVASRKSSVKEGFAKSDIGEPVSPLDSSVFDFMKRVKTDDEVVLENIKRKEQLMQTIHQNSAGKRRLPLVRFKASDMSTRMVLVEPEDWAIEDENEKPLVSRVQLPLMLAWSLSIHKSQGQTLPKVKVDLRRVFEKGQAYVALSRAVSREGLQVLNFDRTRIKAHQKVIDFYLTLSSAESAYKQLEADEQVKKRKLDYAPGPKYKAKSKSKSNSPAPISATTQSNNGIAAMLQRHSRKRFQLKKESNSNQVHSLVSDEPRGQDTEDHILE
# assayMethodText: fluorescence anisotropy
measuredQuantity: Kd (nM)
# value in nM; strip the unit string

Please report the recorded Kd for GTGTGTGTGGTG (ssDNA) [FAM-GR12] .
8.7
